Reported values of MIC for individual entries
test system: Streptococcus pneumoniae; assay: Antimicrobial activity against Streptococcus pneumoniae 1629 after 24 hrs by broth microdilution method; assay type: functional; conditions: Streptococcus pneumoniae, 1629, 24 h

smiles-entry	MIC
C=C1C[C@@H](C(=O)Nc2ncc(C)s2)N(C(=O)[C@H](CCCC)CN(O)C=O)C1	2 µg/mL
O=CN(O)C[C@@H](CC1CCCC1)C(=O)N1CC=C[C@H]1C(=O)Nc1ccc(F)cc1	1 µg/mL
CCCC[C@H](CN(O)C=O)C(=O)N1CC=C[C@H]1C(=O)Nc1ccc(F)c[n+]1[O-]	1 µg/mL
Cc1cnc(NC(=O)[C@@H]2C=CCN2C(=O)[C@H](CC2CCCC2)CN(O)C=O)s1	0.5 µg/mL
O=CN(O)C[C@@H](CC1CCCC1)C(=O)N1CC=C[C@H]1C(=O)Nc1ccccc1	2 µg/mL
CC1(C)S[C@@H]2[C@H](NC(=O)[C@H](N)c3ccc(O)cc3)C(=O)N2[C@H]1C(=O)O	≤ 0.06 µg/mL
C=C1C[C@@H](C(=O)Nc2ccc(F)cn2)N(C(=O)[C@H](CCCC)CN(O)C=O)C1	16 µg/mL
O=CN(O)C[C@@H](CC1CCCC1)C(=O)N1CC=C[C@H]1C(=O)Nc1ccc(F)c[n+]1[O-]	0.5 µg/mL

* * *

Reported values of inhibition at 1 µM for individual entries
molecular target: hERG (KCNH2) (Homo sapiens, UniProt Q12809); test: Inhibition of human ERG at 1 uM
Sequence (Q12809 whole entry): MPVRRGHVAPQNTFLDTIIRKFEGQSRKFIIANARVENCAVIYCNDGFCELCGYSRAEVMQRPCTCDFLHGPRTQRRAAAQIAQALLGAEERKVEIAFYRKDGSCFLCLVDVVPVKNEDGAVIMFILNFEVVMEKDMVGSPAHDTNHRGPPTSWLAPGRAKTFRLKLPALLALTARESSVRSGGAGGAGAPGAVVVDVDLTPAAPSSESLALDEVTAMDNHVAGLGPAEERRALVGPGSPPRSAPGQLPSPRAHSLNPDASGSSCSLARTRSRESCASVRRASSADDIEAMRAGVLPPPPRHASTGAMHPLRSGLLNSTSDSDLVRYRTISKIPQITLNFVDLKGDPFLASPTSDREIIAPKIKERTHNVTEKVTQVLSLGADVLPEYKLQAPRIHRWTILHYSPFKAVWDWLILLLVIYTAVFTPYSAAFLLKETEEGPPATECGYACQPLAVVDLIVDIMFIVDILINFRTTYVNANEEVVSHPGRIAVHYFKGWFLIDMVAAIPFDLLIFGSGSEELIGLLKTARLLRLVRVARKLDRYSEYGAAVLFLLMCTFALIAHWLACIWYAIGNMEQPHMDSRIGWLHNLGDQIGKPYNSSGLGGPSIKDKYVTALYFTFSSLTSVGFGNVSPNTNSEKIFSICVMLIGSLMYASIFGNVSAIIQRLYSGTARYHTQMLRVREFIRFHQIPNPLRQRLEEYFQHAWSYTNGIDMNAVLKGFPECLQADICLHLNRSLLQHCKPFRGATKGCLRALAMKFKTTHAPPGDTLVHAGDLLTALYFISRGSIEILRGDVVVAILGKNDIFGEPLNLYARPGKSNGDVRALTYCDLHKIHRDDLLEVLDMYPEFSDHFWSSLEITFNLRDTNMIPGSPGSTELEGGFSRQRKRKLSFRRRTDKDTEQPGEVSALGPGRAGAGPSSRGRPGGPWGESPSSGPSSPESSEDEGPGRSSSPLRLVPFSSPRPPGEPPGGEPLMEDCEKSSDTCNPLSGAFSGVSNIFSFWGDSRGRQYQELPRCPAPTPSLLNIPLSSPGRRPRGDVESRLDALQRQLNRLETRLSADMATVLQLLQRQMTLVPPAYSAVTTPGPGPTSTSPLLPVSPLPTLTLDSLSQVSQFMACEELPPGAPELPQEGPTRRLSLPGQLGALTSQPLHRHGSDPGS
reported-property: inhibition at 1 µM (%)

smiles-entry	reported-property	result-number
C=C1C[C@@H](C(=O)Nc2ncc(C)s2)N(C(=O)[C@H](CCCC)CN(O)C=O)C1	inhibition at 1 µM	-0.35
CCCC[C@H](CN(O)C=O)C(=O)N1CC=C[C@H]1C(=O)Nc1ccc(F)c[n+]1[O-]	inhibition at 1 µM	4.55
O=CN(O)C[C@@H](CC1CCCC1)C(=O)N1CC=C[C@H]1C(=O)Nc1ccc(F)c[n+]1[O-]	inhibition at 1 µM	1.15
CCCC[C@H](CN(O)C=O)C(=O)N1CC=C[C@H]1C(=O)Nc1ncc(C)s1	inhibition at 1 µM	5.7
Cc1cnc(NC(=O)[C@@H]2C=CCN2C(=O)[C@H](CC2CCCC2)CN(O)C=O)s1	inhibition at 1 µM	5.38

* * *

test system: Staphylococcus epidermidis; test: Antimicrobial activity against Staphylococcus epidermidis after 24 hrs by broth microdilution method; assay type: functional

smiles-entry	target	MIC [mg/L]
CCCC[C@H](CN(O)C=O)C(=O)N1CC=C[C@H]1C(=O)Nc1ccc(F)cc1	Staphylococcus epidermidis	4
CCCC[C@H](CN(O)C=O)C(=O)N1CC=C[C@H]1C(=O)Nc1ccc([N+](=O)[O-])cc1	Staphylococcus epidermidis	0.5
C=C1C[C@@H](C(=O)Nc2ccc(F)cn2)N(C(=O)[C@H](CCCC)CN(O)C=O)C1	Staphylococcus epidermidis	0.25

* * *

test system: Haemophilus influenzae; assay: Antimicrobial activity against AcrA-deficient Haemophilus influenzae H128 after 24 hrs by broth microdilution method; assay type: functional; settings: H128, 24 h
reported-property: MIC

smiles-entry	result
O=CN(O)C[C@@H](CC1CCCC1)C(=O)N1CC=C[C@H]1C(=O)Nc1ccc(F)c[n+]1[O-]	≤ 0.06 µg/mL
CCCC[C@H](CN(O)C=O)C(=O)N1CC=C[C@H]1C(=O)Nc1ccc(F)c[n+]1[O-]	≤ 0.06 µg/mL
C=C1C[C@@H](C(=O)Nc2ccc(F)cn2)N(C(=O)[C@H](CCCC)CN(O)C=O)C1	0.5 µg/mL
C=C1C[C@@H](C(=O)Nc2ncc(C)s2)N(C(=O)[C@H](CCCC)CN(O)C=O)C1	≤ 0.06 µg/mL

* * *

tested on: Staphylococcus aureus; test: Antimicrobial activity against Staphylococcus aureus after 24 hrs by broth microdilution method; type: functional
reported-property: log10(MIC) (log10 of the value in µg/mL)

smiles-entry	log10(MIC)
CCCC[C@H](CN(O)C=O)C(=O)N1CC=C[C@H]1C(=O)Nc1ccc(F)c[n+]1[O-]	-0.30
CCCC[C@H](CN(O)C=O)C(=O)N1CC=C[C@H]1C(=O)Nc1ncc(C)s1	-1.20
CCCC[C@H](CN(O)C=O)C(=O)N1CC=C[C@H]1C(=O)Nc1cccc(Br)c1	0.90
CCCC[C@H](CN(O)C=O)C(=O)N1CC=C[C@H]1C(=O)Nc1nnc(C(F)(F)F)s1	1.51
CCCC[C@H](CN(O)C=O)C(=O)N1CC=C[C@H]1C(=O)Nc1ccc(F)cn1	-0.30
Cc1cnc(NC(=O)[C@@H]2C[C@H]3CCCC[C@@H]3N2C(=O)[C@H](CC2CCCC2)CN(O)C=O)s1	0.60
CCCC[C@H](CN(O)C=O)C(=O)N1[C@H](C(=O)Nc2ncc(C)s2)C[C@H]2CCCC[C@@H]21	0.90
O=CN(O)C[C@@H](CC1CCCC1)C(=O)N1[C@H](C(=O)Nc2ccc(F)cn2)C[C@H]2CCCC[C@@H]21	0.60
O=CN(O)C[C@@H](CC1CCCC1)C(=O)N1CC=C[C@H]1C(=O)N1CCOCC1	1.81
Cc1cnc(NC(=O)[C@@H]2C[C@H](F)CN2C(=O)[C@H](CC2CCCC2)CN(O)C=O)s1	0.00

* * *

Reported values of inhibition at 10 µM for individual entries
target: hERG (KCNH2) (Homo sapiens, UniProt Q12809); assay: Inhibition of human ERG at 10 uM

smiles-entry	inhibition at 10 µM
Cc1cnc(NC(=O)[C@@H]2C=CCN2C(=O)[C@H](CC2CCCC2)CN(O)C=O)s1	15.9%
CCCC[C@H](CN(O)C=O)C(=O)N1CC=C[C@H]1C(=O)Nc1ncc(C)s1	5.5%
CCCC[C@H](CN(O)C=O)C(=O)N1CC=C[C@H]1C(=O)Nc1ccc(F)c[n+]1[O-]	6.71%
C=C1C[C@@H](C(=O)Nc2ncc(C)s2)N(C(=O)[C@H](CCCC)CN(O)C=O)C1	-2.98%

* * *

tested on: Staphylococcus epidermidis; experiment: Antimicrobial activity against Staphylococcus epidermidis after 24 hrs by broth microdilution method; assay type: functional
reported-property: MIC (µg/mL)

smiles-entry	target	qualifying-sign	result-number
CCCC[C@H](CN(O)C=O)C(=O)N1CC=C[C@H]1C(=O)N1CCOCC1	Staphylococcus epidermidis	>	64
O=CN(O)C[C@@H](CC1CCCC1)C(=O)N1CC=C[C@H]1C(=O)Nc1ccc(F)c[n+]1[O-]	Staphylococcus epidermidis	=	0.25
CCCC[C@H](CN(O)C=O)C(=O)N1CC=C[C@H]1C(=O)Nc1ccc(F)c[n+]1[O-]	Staphylococcus epidermidis	=	1
CCCC[C@H](CN(O)C=O)C(=O)N1CC=C[C@H]1C(=O)Nc1ncc(C)s1	Staphylococcus epidermidis	=	0.25
C=C1C[C@@H](C(=O)Nc2ccccc2)N(C(=O)[C@H](CCCC)CN(O)C=O)C1	Staphylococcus epidermidis	=	1
CCCC[C@H](CN(O)C=O)C(=O)N1CC=C[C@H]1C(=O)Nc1ccccc1	Staphylococcus epidermidis	=	2
O=CN(O)C[C@@H](CC1CCCC1)C(=O)N1CC=C[C@H]1C(=O)Nc1ccc(F)cn1	Staphylococcus epidermidis	=	0.125
CCCC[C@H](CN(O)C=O)C(=O)N1CC=C[C@H]1C(=O)Nc1ccc(F)cn1	Staphylococcus epidermidis	=	0.5
C[C@H](NC(=O)[C@@H]1C=CCN1C(=O)[C@H](CC1CCCC1)CN(O)C=O)c1ccccc1	Staphylococcus epidermidis	=	8
CCCC[C@H](CN(O)C=O)C(=O)N1CC=C[C@H]1C(=O)Nc1nnc(C(F)(F)F)s1	Staphylococcus epidermidis	=	16
CCCC[C@H](CN(O)C=O)C(=O)N1CC=C[C@H]1C(=O)Nc1ccccc1Cl	Staphylococcus epidermidis	=	1

Data provenance is ChEMBL document CHEMBL3352487.
